// data source = patent US5182283A

Listed here: items and their measured IC50.
- System Tested: muscarinic acetylcholine receptors
- Test Method Notes: inhibition of specific binding of ^3 H-Oxotremorine-M (^3 H-Oxo) in rat cortex
- Condition Context: read-out: Inhibition in vitro OXO BINDING (IC50, concentration which inhibits the specific binding of ^3 H-Oxo by 50%), ^3 H-Oxotremorine 1.0 nM, 30 min at 25° C., pH 7.4, 25-75% inhibition needed for calculation
Where a name gives a salt, the structure may show the parent alone.
Your answer should be a plain number; it is taken to be in µM.

// worked examples, IC50 included
1) CCCCCOc1nccnc1C1CN2CCC1CC2 (stereo not shown) [Compound 25, hydrochloride]    0.006
2) FC(F)(F)C(F)(F)C(F)(F)C(F)(F)CCOc1nccnc1C1=CN2CCC1CC2 [Compound 24, hydrochloride]    0.49
3) CCCCCCOc1nccnc1[C@H]1CN2CC[C@@H]1C2 (relative stereo) [Compound 27, hemihydrate]    0.046

Consider the record given below.
Input line: Need IC50 of CCCCCCOc1nccnc1[C@@H]1CN2CC[C@@H]1C2 (relative stereo) [Compound 28, hydrochloride] , thanks.
Output line: 0.0056
